Catalogue of T/C readings, one per entry.
system: L1210 leukemia ip in BDF1 mice, survival T/C; test: NCI In Vivo Anticancer Drug Screen. Data for tumor model L1210 Leukemia (intraperitoneal) in B6D2F1 (BDF1) mice; conditions: endpoint: mean survival time; dose: 50.0 mg/kg/injection; schedule: Q04DX003 (ip); vehicle: saline; higher = longer survival
Toxic doses and inconclusive results are not listed.

COMPOUND	RESULT
BrCc1cccc2ccccc12	90 % of control
CCOC(=O)C(OCc1ccccc1)(C(=O)Cl)C(C)C (stereo not given)	103 % of control
CC1(CNC(=O)C(=O)NCC2(C)CO2)CO1 (stereo not given)	124 % of control
O=C1CNC(=O)N1CCCl	100 % of control

Now look at this one.
CCOP(=O)(/N=C1/C2CCC(C2)C1C)OCC (stereo not given) has a reported T/C of 102 % of control
